- assay-target: Platelet-derived growth factor receptor beta (Homo sapiens)
- Sequence (P09619 whole entry): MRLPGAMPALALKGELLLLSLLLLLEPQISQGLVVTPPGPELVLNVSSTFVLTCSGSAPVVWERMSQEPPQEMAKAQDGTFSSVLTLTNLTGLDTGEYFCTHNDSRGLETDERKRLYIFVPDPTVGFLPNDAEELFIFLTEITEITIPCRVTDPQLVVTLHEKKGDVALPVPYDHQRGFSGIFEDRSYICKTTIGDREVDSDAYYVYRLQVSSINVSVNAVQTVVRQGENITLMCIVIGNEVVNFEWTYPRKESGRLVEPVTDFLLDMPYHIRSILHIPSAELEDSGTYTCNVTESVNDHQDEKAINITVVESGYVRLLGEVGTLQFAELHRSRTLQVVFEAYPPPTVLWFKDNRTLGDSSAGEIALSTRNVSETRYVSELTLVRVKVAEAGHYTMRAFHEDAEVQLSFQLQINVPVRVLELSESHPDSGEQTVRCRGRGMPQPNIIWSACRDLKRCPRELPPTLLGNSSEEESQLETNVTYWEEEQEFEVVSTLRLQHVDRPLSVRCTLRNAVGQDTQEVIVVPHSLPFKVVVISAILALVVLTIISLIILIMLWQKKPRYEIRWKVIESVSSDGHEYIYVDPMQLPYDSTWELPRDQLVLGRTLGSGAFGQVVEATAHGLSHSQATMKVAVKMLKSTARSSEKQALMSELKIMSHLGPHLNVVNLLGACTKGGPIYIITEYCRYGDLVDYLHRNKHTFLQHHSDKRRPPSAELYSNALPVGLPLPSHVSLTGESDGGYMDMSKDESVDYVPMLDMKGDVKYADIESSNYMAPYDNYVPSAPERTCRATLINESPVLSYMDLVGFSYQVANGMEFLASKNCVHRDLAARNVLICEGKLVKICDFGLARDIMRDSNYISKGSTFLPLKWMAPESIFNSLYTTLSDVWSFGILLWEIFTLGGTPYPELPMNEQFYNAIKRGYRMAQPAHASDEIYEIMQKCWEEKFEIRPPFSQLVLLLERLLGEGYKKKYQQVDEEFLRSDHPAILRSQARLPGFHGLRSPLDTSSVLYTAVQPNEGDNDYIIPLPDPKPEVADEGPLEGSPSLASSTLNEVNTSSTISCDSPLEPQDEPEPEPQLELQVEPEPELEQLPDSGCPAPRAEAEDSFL
For each record, check the reported IC50: if it is below 70 nM write satisfied, else write not satisfied.

Observe how each entry below is paired with its result.
[[record]]
structure_notation = "COC(=O)c1ccc2c(c1)NC(=O)/C2=C(\\Nc1ccc(-n2cccc2CN(C)C)nc1)c1ccccc1"
label = "satisfied"

[[record]]
structure_notation = "COC(=O)c1ccc2c(c1)NC(=O)/C2=C(\\Nc1cnc(-n2cccc2CN2CCN(C)CC2)c(C)c1)c1ccccc1"
label = "not satisfied"

[[record]]
structure_notation = "COC(=O)c1ccc2c(c1)NC(=O)/C2=C(\\Nc1ccc(-n2c(C)ccc2CN2CCN(C)CC2)nc1)c1ccccc1"
label = "not satisfied"

[[record]]
structure_notation = "COC(=O)c1ccc2c(c1)NC(=O)/C2=C(\\Nc1ccc(-n2cccc2CN2CCN(C)CC2)nc1)c1ccccc1"
label = "not satisfied"


Now for a further compound.
Prompt line: # check: IC50 < 70 nM for COC(=O)c1ccc2c(c1)NC(=O)/C2=C(\Nc1ccc(-n2c(C)ccc2CN2CCN(C)CC2)cc1)c1ccccc1
Response line: satisfied

* * *

- assay-target: Tyrosine-protein kinase Lyn (Homo sapiens)
- Sequence (P07948 whole entry): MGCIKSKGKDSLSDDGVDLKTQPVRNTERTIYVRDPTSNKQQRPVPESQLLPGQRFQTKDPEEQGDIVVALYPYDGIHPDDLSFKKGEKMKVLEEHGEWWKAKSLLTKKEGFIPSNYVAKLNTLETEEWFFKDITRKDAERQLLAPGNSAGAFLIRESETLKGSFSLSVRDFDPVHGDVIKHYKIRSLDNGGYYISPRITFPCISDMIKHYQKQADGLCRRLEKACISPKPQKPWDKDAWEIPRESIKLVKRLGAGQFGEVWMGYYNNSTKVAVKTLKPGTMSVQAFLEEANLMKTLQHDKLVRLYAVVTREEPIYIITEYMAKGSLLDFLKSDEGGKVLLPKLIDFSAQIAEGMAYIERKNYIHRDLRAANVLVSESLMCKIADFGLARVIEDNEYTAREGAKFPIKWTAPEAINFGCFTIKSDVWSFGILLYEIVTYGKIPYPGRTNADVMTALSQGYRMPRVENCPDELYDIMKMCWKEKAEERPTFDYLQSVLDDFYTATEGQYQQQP
- test-method-notes: Inhibition of LYN (unknown origin) using FAM-labeled peptide and ATP as substrate preincubated for 10 mins followed by substrate addition measured after 1 hr by mobility shift assay
reported-metric: pIC50
In textbook form, pIC50 equals minus log to base ten of the concentration in mol/L.

[[record]]
structure_notation = "COC(=O)c1ccc2c(c1)NC(=O)/C2=C(\\Nc1ccc(-n2c(C)ccc2CN2CCN(C)CC2)cc1)c1ccccc1"
reported_metric = "pIC50"
endpoint_result = 7.80


Then there is this compound:
Prompt line: Report pIC50 for COC(=O)c1ccc2c(c1)NC(=O)/C2=C(\Nc1ccc(N(C)C(=O)CN2CCN(C)CC2)cc1)c1ccccc1
Response line: 7.26

* * *

- test-method-notes: Intrinsic clearance in human liver microsomes
- Assay type: ADME, Microsome
- conditions-used: read-out: CLH
Documented CLint scaled across a set of compounds
Numbers only here, please. The scale is mL/min/kg.

[[record]]
structure_notation = "COC(=O)c1ccc2c(c1)NC(=O)/C2=C(\\Nc1ccc(N(C)C(=O)CN2CCN(C)CC2)cc1)c1ccccc1"
reported_metric = "CLint scaled"
endpoint_result = 63.5


Prompt line: Report CLint scaled for COC(=O)c1ccc2c(c1)NC(=O)/C2=C(\Nc1ccc(-n2c(C)ccc2CN2CCN(C)CC2)cc1)c1ccccc1
Response line: 82

* * *

- assay-target: Vascular endothelial growth factor receptor 1 (Homo sapiens)
- Sequence (P17948 whole entry, the tested form may be a part): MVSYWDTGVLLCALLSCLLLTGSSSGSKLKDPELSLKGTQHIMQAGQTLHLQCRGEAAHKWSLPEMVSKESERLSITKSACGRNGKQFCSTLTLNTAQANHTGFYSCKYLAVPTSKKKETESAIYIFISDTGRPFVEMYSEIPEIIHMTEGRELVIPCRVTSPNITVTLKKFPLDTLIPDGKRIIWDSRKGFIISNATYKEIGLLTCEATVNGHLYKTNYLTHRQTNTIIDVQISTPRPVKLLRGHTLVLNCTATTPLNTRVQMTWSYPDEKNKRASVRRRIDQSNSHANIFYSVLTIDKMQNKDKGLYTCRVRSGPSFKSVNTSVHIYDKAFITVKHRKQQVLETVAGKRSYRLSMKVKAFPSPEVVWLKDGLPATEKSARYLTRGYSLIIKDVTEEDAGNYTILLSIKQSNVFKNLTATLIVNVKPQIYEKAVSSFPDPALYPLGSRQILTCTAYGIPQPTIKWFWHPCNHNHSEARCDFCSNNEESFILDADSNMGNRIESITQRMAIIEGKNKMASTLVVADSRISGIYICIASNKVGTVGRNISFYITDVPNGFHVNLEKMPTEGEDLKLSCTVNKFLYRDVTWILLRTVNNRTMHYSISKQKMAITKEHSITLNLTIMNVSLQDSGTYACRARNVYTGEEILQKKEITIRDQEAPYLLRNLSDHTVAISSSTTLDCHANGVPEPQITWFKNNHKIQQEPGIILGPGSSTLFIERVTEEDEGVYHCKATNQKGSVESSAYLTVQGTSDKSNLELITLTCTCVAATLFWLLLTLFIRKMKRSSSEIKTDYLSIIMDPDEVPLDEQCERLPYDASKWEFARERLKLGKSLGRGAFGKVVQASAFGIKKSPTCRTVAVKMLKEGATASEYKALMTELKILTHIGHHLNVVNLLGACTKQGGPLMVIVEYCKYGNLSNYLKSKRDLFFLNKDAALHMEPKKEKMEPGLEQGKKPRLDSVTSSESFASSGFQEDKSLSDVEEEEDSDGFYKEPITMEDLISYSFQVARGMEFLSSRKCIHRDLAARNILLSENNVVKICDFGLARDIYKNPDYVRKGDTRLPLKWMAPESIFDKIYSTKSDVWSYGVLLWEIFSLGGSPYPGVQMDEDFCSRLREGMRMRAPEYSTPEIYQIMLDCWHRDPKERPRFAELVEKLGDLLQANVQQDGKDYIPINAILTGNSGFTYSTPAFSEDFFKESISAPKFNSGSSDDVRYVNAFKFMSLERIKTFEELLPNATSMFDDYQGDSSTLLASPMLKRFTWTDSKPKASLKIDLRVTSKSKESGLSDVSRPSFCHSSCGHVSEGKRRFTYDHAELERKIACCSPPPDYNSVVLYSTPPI
- test-method-notes: Inhibition of GST-tagged human recombinant VEGFR1 cytoplasmic domain (781 to 1338 residues) expressed in baculovirus expression system using FAM-labeled peptide and ATP as substrate preincubated for 10 mins followed by substrate addition measured after 1 hr by mobility shift assay
reported-metric: pIC50
In textbook form, pIC50 equals minus log to base ten of the concentration in mol/L.

Prompt line: Report pIC50 for COC(=O)c1ccc2c(c1)NC(=O)/C2=C(\Nc1ccc(-n2c(C)ccc2CN2CCN(C)CC2)cc1)c1ccccc1
Response line: 7.51

* * *

- assay-target: Cyclin-dependent kinase 4 (Homo sapiens, UniProt P11802)
- Sequence (P11802 whole entry): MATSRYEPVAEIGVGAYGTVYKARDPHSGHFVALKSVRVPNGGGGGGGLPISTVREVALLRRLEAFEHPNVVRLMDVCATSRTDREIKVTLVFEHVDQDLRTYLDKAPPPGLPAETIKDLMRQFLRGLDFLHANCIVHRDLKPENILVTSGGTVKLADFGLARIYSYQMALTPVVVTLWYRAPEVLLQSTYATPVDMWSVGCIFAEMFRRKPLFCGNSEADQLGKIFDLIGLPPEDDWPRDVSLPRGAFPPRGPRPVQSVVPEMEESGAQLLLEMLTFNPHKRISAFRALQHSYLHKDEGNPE
reported-metric: IC50

Prompt line: Report IC50 for COC(=O)c1ccc2c(c1)NC(=O)/C2=C(\Nc1ccc(-n2c(C)ccc2CN2CCN(C)CC2)cc1)c1ccccc1
Response line: > 1000 nM

Just for reference, ChEMBL document CHEMBL4622841 is where these values come from.
